Biological target: T1, Biotinylated recombinant soluble human CD138 extracellular domain (Sino Biological, Cat. 11429-H08H) (human, UniProt P18827 18-251, biotin (EZ-Link NHS-SS-PEG4 Biotin) on primary amino groups of lysines, protein:biotin 1:20)
T1 construct: range 18-251; Bought reagent; The limits are printed as approximate; also called biotinylated CD138; recombinant CD138
T1 sequence (looked up): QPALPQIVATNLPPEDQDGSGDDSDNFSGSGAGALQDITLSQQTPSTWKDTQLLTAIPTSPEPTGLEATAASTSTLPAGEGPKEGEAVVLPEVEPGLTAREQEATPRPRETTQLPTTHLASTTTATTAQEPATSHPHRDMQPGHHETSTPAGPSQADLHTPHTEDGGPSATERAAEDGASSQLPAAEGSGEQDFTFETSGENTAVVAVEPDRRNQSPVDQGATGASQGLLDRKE
Assay: BLI (Octet): biotinylated CD138 (10 nM) on streptavidin tips, antibody 12.5 and 25 nM, pH 6.0, 1:1 fit
Procedure: Binding experiments were carried using assay buffer comprised of 100 mM Sodium Phosphate+ 150 mM NaCl + 0.02% Tween-20 and adjusted to target pH of 7.4, 6.0, 6.4, or 6 using appropriate ratios of monobasic and dibasic sodium phosphate buffer. […] Data were analyzed for purposes of calculating approximate kinetic binding parameters and apparent binding affinities based on these rates. […]
readout: kon

Prompt: Give the value of kon reported for the following: Antibody Ab30 (antibody, V domains shown) VH: EVQLVQSGAEVKKPGASVKVSCKASGYSFSSYYMHWVRQAPGQGLEWMGTIHPEDSTTNYNQKFQGRVTMTVDTSTRTAYMELSSLRSEDTAVYYCADFVYWGQGTTVTVSS VL: DIVMTQTPLSLSVTPGQPASISCKSSKSLLYKDGKTYLNWFLQKPGQSPQLLIYVVSTRASGVPDRFSGSGSGTDFTLKISRVEAEDVGVYYCQQLVEYPYTFGQGTKLEIK
Completion: 720000 M⁻¹ s⁻¹

Prompt: Please give the documented kon of Antibody Ab32 (antibody, V domains shown) VH: EVQLVQSGAEVKKPGASVKVSCKASGYSFSSYYMHWVRQAPGQGLEWMGTIHPSDSTTNYNQKFQGRVTMTVDTSTRTAYMELSSLRSEDTAVYYCADFLYWGQGTTVTVSS VL: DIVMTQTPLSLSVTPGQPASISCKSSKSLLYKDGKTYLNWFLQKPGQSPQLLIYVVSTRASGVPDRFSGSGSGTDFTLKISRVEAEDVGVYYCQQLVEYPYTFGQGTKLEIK
Completion: 560000 M⁻¹ s⁻¹

Prompt: Give the reported kon for this binder. Antibody Ab71 (antibody, V domains shown) VH: QVQLVQSGAEVKKPGASVKVSCKASGYSFSSYYMHWVRQAPGQGLEWMGDIHPSDSTTNYNQKFQGRVTMTVDTSTRTAYMELSSLRSEDTAVYYCANFVYWGQGTTVTVSS VL: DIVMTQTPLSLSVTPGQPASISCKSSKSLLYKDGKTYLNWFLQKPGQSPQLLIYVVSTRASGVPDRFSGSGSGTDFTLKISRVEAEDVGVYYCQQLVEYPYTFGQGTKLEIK
Completion: 1.2e+06 M⁻¹ s⁻¹

Prompt: Assign kon to the following record: Antibody Ab43 (antibody, V domains shown) VH: EVQLVQSGAEVKKPGASVKVSCKASGYSFSSYYMHWVRQAPGQGLEWMGTIHPSDSTTNYNQKFQGRVTMTVDTSTRTAYMELSSLRSEDTAVYYCADFVYWGQGTTVTVSS VL: DIVMTQTPLSLSVTPGQPASISCKSSKSLLYKDGKTYLLWFLQKPGQSPQLLIYVVSTRASGVPDRFSGSGSGTDFTLKISRVEAEDVGVYYCQQLVEYPYTFGQGTKLEIK
Completion: 630000 M⁻¹ s⁻¹
